Hello, the source for this data is patent US20190328788A1, in case you need it.

Molecular target: T1, transforming growth factor-beta 3 (TGF-β3) (UniProt P10600 301-412)
T1 construct: also called TGFb3; TGFB3
T1 sequence (looked up): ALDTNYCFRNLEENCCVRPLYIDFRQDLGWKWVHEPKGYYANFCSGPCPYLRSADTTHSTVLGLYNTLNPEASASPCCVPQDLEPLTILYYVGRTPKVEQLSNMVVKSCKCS
Experiment: ELISA, peptide on streptavidin plate, ligand 100 ng/ml
Ends that are not written are not given here.
Recorded Metric: ELISA OD450 (OD450)

INSERT INTO assay_data (binder, observed_value) VALUES
  ('PLDQYVKFDAVSGDYYPIIYFNDYWNLQKDYYPINESLA (also: biotinylated, site not given here, also called peptide 32; GT8) [CLPTM1 peptide fragment of SEQ ID NO: 39]', 0.074),
  ('AAAQEADGARSAVVAAGGGSG (also: biotinylated, site not given here) [CLPTM1 peptide fragment of SEQ ID NO: 8]', 0.015),
  ('YPINESLASLPLRVSFCPLSG (also: biotinylated, site not given here, also called peptide 20) [CLPTM1 peptide fragment of SEQ ID NO: 27]', 0.018);
